Molecular target: cdk4/D (Homo sapiens)
Sequence (P11802 whole entry): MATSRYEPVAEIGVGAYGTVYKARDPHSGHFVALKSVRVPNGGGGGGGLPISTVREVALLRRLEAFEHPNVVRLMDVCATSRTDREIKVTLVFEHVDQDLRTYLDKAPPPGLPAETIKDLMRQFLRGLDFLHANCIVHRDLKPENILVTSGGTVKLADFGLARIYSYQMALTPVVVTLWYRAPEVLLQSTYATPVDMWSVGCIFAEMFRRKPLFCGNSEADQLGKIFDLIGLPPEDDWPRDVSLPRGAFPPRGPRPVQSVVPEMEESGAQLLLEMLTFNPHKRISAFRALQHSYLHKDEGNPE
Sequence (P24385 whole entry, further chain): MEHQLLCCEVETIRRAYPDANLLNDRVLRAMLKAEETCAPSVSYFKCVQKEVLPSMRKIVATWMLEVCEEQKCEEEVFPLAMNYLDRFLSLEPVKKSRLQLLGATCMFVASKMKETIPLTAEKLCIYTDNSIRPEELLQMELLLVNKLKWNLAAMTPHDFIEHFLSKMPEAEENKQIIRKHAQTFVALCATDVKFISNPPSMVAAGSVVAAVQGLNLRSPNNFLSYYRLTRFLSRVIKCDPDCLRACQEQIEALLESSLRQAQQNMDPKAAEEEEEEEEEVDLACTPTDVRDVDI
Test: Cyclin-Dependent Kinase 4 (cdk4) Assay
Format: biochemical
Conditions: read-out: cdk4/D IC50
Measured pIC50 of individual entries
By convention, pIC50 is the negative base-10 log of a molar concentration.

INSERT INTO assay_data (smiles_record, measured_number) VALUES
  ('CC(C)n1c(=O)ccc2cnc(Nc3cc(Cl)cc(Cl)c3)nc21', 6.25),
  ('CC(C)n1c(=O)ccc2cnc(Nc3ccc(C#N)cc3)nc21', 6.60),
  ('O=c1ccc2cnc(Nc3ccc4[nH]ncc4c3)nc2n1C1CCCC1', 7.60),
  ('CC(C)(C)OC(=O)Nc1ccc(Nc2ncc3ccc(=O)n(CC4CC4)c3n2)cc1', 6.41),
  ('O=c1ccc2cnc(Nc3cc(F)cc(F)c3)nc2n1CC1CC1', 6.27);

// pIC50 lookup, compound = CCCCn1c(=O)ccc2cnc(Nc3ccc(O)cc3F)nc21 , result: 6.17

Reference for the values: patent US20040224958A1
